test: in vivo; conditions: male, Gottingen, minipig, in vivo, iv, 4 ug/kg, Tmax
Readout label: Tmax (min)

[
  {
    "Compound": "OCc1cc(C(O)CNCCCCCCOCCCCc2ccccc2)ccc1O (racemic) [Salmeterol]",
    "Measure unit": "min",
    "Number": 2
  }
]

---

test: Plasma pharmacokinetics following a single intravenous and subcutaneous injection of a combination of formoterol and budesonide; conditions: male, Gottingen, minipig, in vivo, Plasma concentration of formoterol, SC5 0.4 μg/kg, combination, male 1-0771, 1.00 hr
Readout label: concentration at 1 hr (ng/mL)

[
  {
    "Molecule": "COc1ccc(CC(C)NCC(O)c2ccc(O)c(NC=O)c2)cc1 (stereo not shown) [Formoterol, formoterol]",
    "Number": 0.0801
  }
]

---

experiment: Plasma pharmacokinetics following a single intravenous and subcutaneous injection of a combination of formoterol and budesonide; settings: male, Gottingen, minipig, in vivo, t1/2, formoterol 0.4 μg/kg SC1 single site, combination, male 1-0771

[
  {
    "Compound": "COc1ccc(CC(C)NCC(O)c2ccc(O)c(NC=O)c2)cc1 (stereo not shown) [Formoterol, formoterol]",
    "half-life, h": 5.51
  }
]

---

test: Plasma pharmacokinetics following single intravenous and subcutaneous injections of salmeterol xinafoate; details: male, Gottingen, minipig, in vivo, sc, 4 ug/kg

[
  {
    "Molecule": "OCc1cc(C(O)CNCCCCCCOCCCCc2ccccc2)ccc1O (racemic) [Salmeterol]",
    "Tmax [min]": 5
  }
]

---

assay: in vivo; conditions: female, Gottingen, minipig, in vivo, sc, 0.4 ug/kg, Cmax

[
  {
    "Compound": "OCc1cc(C(O)CNCCCCCCOCCCCc2ccccc2)ccc1O (racemic)",
    "Cmax": "0.113 ng/mL"
  }
]
